tested target: A*11:01 (human), P04439
run description: ProImmune REVEAL MHC class I-peptide binding assay
Exercise: state measured REVEAL score at 0 h for each of the binders provided.
Please reply with the value in numeric form only.

GET /value?item= GEAAAIFMT (modifications not checked) &field=REVEAL score at 0 h returns 50.3

Form: binder = GTYGLNTFT (modifications not checked) ; REVEAL score at 0 h = 63.6

binder TVWFVPSIK (modifications not checked) , REVEAL score at 0 h observed: 92.2

The recorded REVEAL score at 0 h for entry ISGDDCVVK (modifications not checked) equals 88.7

Record summary for MCHATFTMR (modifications not checked) : reported REVEAL score at 0 h = 91

For reference, reported REVEAL score at 0 h for ATFTMRLLS (modifications not checked) stands at 58.5

The measurements presented in this section are drawn from patent US20180280496A1.
